# AC50 per record follows
target: PKR(R510Q) (Homo sapiens, UniProt P30613, R510Q); experiment: Luminescence Biochemical Assay (Kinase Glo Plus), PKR R510Q mutant; details: without FBP, read-out: AC50 LUM KGP woFBP AC50 μM gmean
Sequence (P30613 whole entry R510Q): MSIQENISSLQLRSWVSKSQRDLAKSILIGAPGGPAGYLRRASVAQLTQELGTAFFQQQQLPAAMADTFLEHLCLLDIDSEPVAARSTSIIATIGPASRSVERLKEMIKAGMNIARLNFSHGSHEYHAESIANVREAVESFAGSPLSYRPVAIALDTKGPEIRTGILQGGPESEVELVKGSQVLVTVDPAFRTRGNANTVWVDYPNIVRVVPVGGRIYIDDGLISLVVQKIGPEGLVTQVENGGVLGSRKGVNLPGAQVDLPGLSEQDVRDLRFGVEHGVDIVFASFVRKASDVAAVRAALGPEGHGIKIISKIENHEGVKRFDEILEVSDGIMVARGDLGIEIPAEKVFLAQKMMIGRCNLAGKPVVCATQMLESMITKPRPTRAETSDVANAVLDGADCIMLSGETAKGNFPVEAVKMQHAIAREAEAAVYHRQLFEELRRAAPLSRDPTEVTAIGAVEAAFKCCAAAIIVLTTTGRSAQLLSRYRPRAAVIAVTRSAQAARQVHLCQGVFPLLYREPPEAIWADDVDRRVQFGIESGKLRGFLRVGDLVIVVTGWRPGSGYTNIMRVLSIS
OBSERVATION TYPE: AC50

{"MOLECULE": "O=C(Cc1ccc[nH]1)N1CC2=C(C1)CN(S(=O)(=O)c1cccnc1)C2", "TARGET SYSTEM": "PKR(R510Q) (Homo sapiens, UniProt P30613, R510Q)", "OBSERVATION TYPE": "AC50", "ENDPOINT RESULT": "1 to 40 µM"}
{"MOLECULE": "COc1ccc(CNC(=O)N2CC3=C(C2)CN(S(=O)(=O)c2ccc(F)cc2)C3)cc1", "TARGET SYSTEM": "PKR(R510Q) (Homo sapiens, UniProt P30613, R510Q)", "OBSERVATION TYPE": "AC50", "ENDPOINT RESULT": "0.1 to 1 µM"}
{"MOLECULE": "O=C([C@H](O)c1ccccc1)N1CC2=C(C1)CN(S(=O)(=O)c1cccc(C(F)(F)F)c1)C2", "TARGET SYSTEM": "PKR(R510Q) (Homo sapiens, UniProt P30613, R510Q)", "OBSERVATION TYPE": "AC50", "ENDPOINT RESULT": "0.1 to 1 µM"}
{"MOLECULE": "Cc1ccc(CC(=O)N2CC3=C(C2)CN(S(=O)(=O)c2ccccn2)C3)cn1", "TARGET SYSTEM": "PKR(R510Q) (Homo sapiens, UniProt P30613, R510Q)", "OBSERVATION TYPE": "AC50", "ENDPOINT RESULT": "1 to 40 µM"}
{"MOLECULE": "O=C(OCC1CCOC1)N1CC2=C(C1)CN(S(=O)(=O)c1ccc(OC(F)F)cc1)C2 (stereo not drawn)", "TARGET SYSTEM": "PKR(R510Q) (Homo sapiens, UniProt P30613, R510Q)", "OBSERVATION TYPE": "AC50", "ENDPOINT RESULT": "1 to 40 µM"}
{"MOLECULE": "O=C(N1CC2=C(C1)CN(S(=O)(=O)c1cccc3cccnc13)C2)N1CC(O)(Cc2ccccc2)C1", "TARGET SYSTEM": "PKR(R510Q) (Homo sapiens, UniProt P30613, R510Q)", "OBSERVATION TYPE": "AC50", "ENDPOINT RESULT": "1 to 40 µM"}
{"MOLECULE": "O=C(NCc1ccccc1F)N1CC2=C(C1)CN(S(=O)(=O)c1ccc(OC(F)F)cc1)C2", "TARGET SYSTEM": "PKR(R510Q) (Homo sapiens, UniProt P30613, R510Q)", "OBSERVATION TYPE": "AC50", "ENDPOINT RESULT": "≤ 0.1 µM"}
{"MOLECULE": "O=C(OCC1CC1)N1CC2=C(C1)CN(S(=O)(=O)c1ccc(OC(F)F)cc1)C2", "TARGET SYSTEM": "PKR(R510Q) (Homo sapiens, UniProt P30613, R510Q)", "OBSERVATION TYPE": "AC50", "ENDPOINT RESULT": "1 to 40 µM"}
{"MOLECULE": "O=C(Cc1cccnc1)N1CC2=C(C1)CN(S(=O)(=O)c1ccc(OC(F)F)cc1)C2", "TARGET SYSTEM": "PKR(R510Q) (Homo sapiens, UniProt P30613, R510Q)", "OBSERVATION TYPE": "AC50", "ENDPOINT RESULT": "0.1 to 1 µM"}

---

Target: PKR(wt) (Homo sapiens, UniProt P30613)
Sequence (P30613 whole entry): as the sequence (P30613 whole entry R510Q) above, with Q510R counted along it
Assay: Luminescence Biochemical Assay (Kinase Glo Plus), wild type PKR
Conditions: without FBP, read-out: AC50 LUM KGP woFBP MAX % FOLD mean
Procedure: In some embodiments, a PKR Activating Compound can have: (1) an AC50 value of less than 0.1 μM (e.g., compounds with AC50 values of “+++” in Table 13), 0.1-1.0 μM (e.g., compounds with AC50 values of “++” in Table 13), or 1.01-40 μM (e.g., compounds with AC50 values of “+” in Table 13); (2) a MAX % Fold of 75%-250%, 250-500%, or 75%-500%; and/or (3) a % Fold@1.54 μM of 75%-250%, 250-500%, or 75%-500%. […]
# Emax per record follows

{"MOLECULE": "O=C([C@H](O)c1ccccc1)N1CC2=C(C1)CN(S(=O)(=O)c1ccc(Cl)s1)C2 [Example 18-55]", "Emax": "75 to 250%"}
{"MOLECULE": "CC(C)Oc1cccc(CNC(=O)N2CC3=C(C2)CN(S(=O)(=O)c2ccc4ncsc4c2)C3)c1 [Example 21-21]", "Emax": "75 to 250%"}
{"MOLECULE": "O=C(Cc1ccc[nH]1)N1CC2=C(C1)CN(S(=O)(=O)c1cccnc1)C2 [Example 18-73]", "Emax": "75 to 250%"}

---

target: PKR(R510Q) (Homo sapiens, UniProt P30613, R510Q); test: Luminescence Biochemical Assay (Kinase Glo Plus), PKR R510Q mutant; conditions: without FBP, 1.54 μM compound, read-out: AC50 LUM KGP woFBP % Fold@1.54 μM mean
# activation at 1.54 µM per record follows
OBSERVATION TYPE: activation at 1.54 µM

{"COMPOUND": "COc1ccc(CNC(=O)N2CC3=C(C2)CN(S(=O)(=O)c2cccc(F)c2)C3)cc1 [Example 20-7]", "OBSERVATION TYPE": "activation at 1.54 µM", "ENDPOINT RESULT": "250 to 50000%"}
{"COMPOUND": "O=C([C@H](O)c1ccccc1)N1CC2=C(C1)CN(S(=O)(=O)c1ccc(C(F)(F)F)cc1)C2 [Example 18-11]", "OBSERVATION TYPE": "activation at 1.54 µM", "ENDPOINT RESULT": "75 to 250%"}
{"COMPOUND": "O=C(Cc1ccc(F)cc1F)N1CC2=C(C1)CN(S(=O)(=O)c1ccccn1)C2 [Example 18-67]", "OBSERVATION TYPE": "activation at 1.54 µM", "ENDPOINT RESULT": "75 to 250%"}
{"COMPOUND": "O=C([C@@H](O)c1ccc2c(c1)NCCO2)N1CC2=C(C1)CN(S(=O)(=O)c1ccc(OC(F)F)cc1)C2 (single isomer, unassigned) [Example 9-5]", "OBSERVATION TYPE": "activation at 1.54 µM", "ENDPOINT RESULT": "250 to 50000%"}
{"COMPOUND": "O=C(Cc1ncccn1)N1CC2=C(C1)CN(S(=O)(=O)c1ccc(OC(F)F)cc1)C2 [Example 18-28]", "OBSERVATION TYPE": "activation at 1.54 µM", "ENDPOINT RESULT": "250 to 50000%"}

---

molecular target: PKR(R510Q) (Homo sapiens, UniProt P30613, R510Q); assay: Luminescence Biochemical Assay (Kinase Glo Plus), PKR R510Q mutant; conditions: without FBP, read-out: AC50 LUM KGP woFBP MAX % FOLD mean
OBSERVATION TYPE: Emax

{"COMPOUND": "Cc1cccc(Cl)c1S(=O)(=O)N1CC2=C(CN(C(=O)[C@@H](O)c3ccccc3)C2)C1", "ENDPOINT RESULT": "75 to 250%"}
{"COMPOUND": "O=C(Cc1cnccn1)N1CC2=C(C1)CN(S(=O)(=O)c1ccc(OC(F)F)cc1)C2", "ENDPOINT RESULT": "250 to 500%"}
{"COMPOUND": "COc1ccc(CNC(=O)N2CC3=C(C2)CN(S(=O)(=O)c2ccc(OC(F)F)cc2)C3)cc1", "ENDPOINT RESULT": "250 to 500%"}
{"COMPOUND": "Cc1ccc(S(=O)(=O)N2CC3=C(CN(C(=O)[C@H](O)c4ccccc4)C3)C2)cc1F", "ENDPOINT RESULT": "250 to 500%"}
{"COMPOUND": "CC(=O)Nc1ccc(S(=O)(=O)N2CC3=C(CN(C(=O)[C@H](O)c4ccccc4)C3)C2)cc1", "ENDPOINT RESULT": "250 to 500%"}
{"COMPOUND": "O=C([C@H](O)c1ccccc1)N1CC2=C(C1)CN(S(=O)(=O)c1cc(F)cc(F)c1)C2", "ENDPOINT RESULT": "75 to 250%"}
{"COMPOUND": "O=C(NCc1ccccc1F)N1CC2=C(C1)CN(S(=O)(=O)c1ccc(OC(F)F)cc1)C2", "ENDPOINT RESULT": "250 to 500%"}
{"COMPOUND": "O=C(Cc1ccccn1)N1CC2=C(C1)CN(S(=O)(=O)c1ccc(OC(F)F)cc1)C2", "ENDPOINT RESULT": "250 to 500%"}
{"COMPOUND": "O=C(NCc1cccc(F)c1)N1CC2=C(C1)CN(S(=O)(=O)c1ccc3ncsc3c1)C2", "ENDPOINT RESULT": "250 to 500%"}
{"COMPOUND": "O=C(Cc1ccc[nH]1)N1CC2=C(C1)CN(S(=O)(=O)c1cccnc1)C2", "ENDPOINT RESULT": "75 to 250%"}
{"COMPOUND": "Cc1nn(C)c(Cl)c1S(=O)(=O)N1CC2=C(CN(C(=O)[C@H](O)c3ccccc3)C2)C1", "ENDPOINT RESULT": "75 to 250%"}
{"COMPOUND": "O=C(NCc1ccc(F)cc1)N1CC2=C(C1)CN(S(=O)(=O)c1cccc3cnccc13)C2", "ENDPOINT RESULT": "75 to 250%"}
{"COMPOUND": "O=C([C@H](O)c1ccccc1)N1CC2=C(C1)CN(S(=O)(=O)c1ccc(Cl)cc1)C2", "ENDPOINT RESULT": "250 to 500%"}
{"COMPOUND": "O=C([C@H](O)c1ccc2c(c1)CNCC2)N1CC2=C(C1)CN(S(=O)(=O)c1ccc(OC(F)F)cc1)C2 (single isomer, unassigned)", "ENDPOINT RESULT": "250 to 500%"}
{"COMPOUND": "O=C(NCc1ccc(F)cc1)N1CC2=C(C1)CN(S(=O)(=O)c1cccc3nonc13)C2", "ENDPOINT RESULT": "250 to 500%"}
{"COMPOUND": "CC[C@@H](O)C(=O)N1CC2=C(C1)CN(S(=O)(=O)c1ccc3c(c1)N(C)CCO3)C2", "ENDPOINT RESULT": "75 to 250%"}
{"COMPOUND": "O=C([C@H](O)c1ccccc1)N1CC2=C(C1)CN(S(=O)(=O)c1cccc(OC(F)F)c1)C2", "ENDPOINT RESULT": "250 to 500%"}
{"COMPOUND": "O=C([C@H](O)c1ccccc1)N1CC2=C(C1)CN(S(=O)(=O)c1cccnc1)C2", "ENDPOINT RESULT": "250 to 500%"}
{"COMPOUND": "Cc1cc(CNC(=O)N2CC3=C(C2)CN(S(=O)(=O)c2ccc(OC(F)F)cc2)C3)no1", "ENDPOINT RESULT": "250 to 500%"}
{"COMPOUND": "Cc1ccc(F)c(S(=O)(=O)N2CC3=C(CN(C(=O)[C@H](O)c4ccccc4)C3)C2)c1", "ENDPOINT RESULT": "250 to 500%"}
{"COMPOUND": "CN1CCOc2ccc(S(=O)(=O)N3CC4=C(CN(C(=O)[C@H]5CCCO5)C4)C3)cc21", "ENDPOINT RESULT": "75 to 250%"}
{"COMPOUND": "O=C([C@@H](O)c1ccc2c(c1)CNCC2)N1CC2=C(C1)CN(S(=O)(=O)c1ccc(OC(F)F)cc1)C2 (single isomer, unassigned)", "ENDPOINT RESULT": "250 to 500%"}
{"COMPOUND": "C[C@@H](C(=O)N1CC2=C(C1)CN(S(=O)(=O)c1ccc(Cl)s1)C2)c1ccccc1", "ENDPOINT RESULT": "75 to 250%"}
